- Tgt: IN-GCN2 interaction (6xHis-IN / GST-GCN2) (UniProt P04585+Q9P2K8)
- Sequence (Q9P2K8 192-1024, other chains not shown): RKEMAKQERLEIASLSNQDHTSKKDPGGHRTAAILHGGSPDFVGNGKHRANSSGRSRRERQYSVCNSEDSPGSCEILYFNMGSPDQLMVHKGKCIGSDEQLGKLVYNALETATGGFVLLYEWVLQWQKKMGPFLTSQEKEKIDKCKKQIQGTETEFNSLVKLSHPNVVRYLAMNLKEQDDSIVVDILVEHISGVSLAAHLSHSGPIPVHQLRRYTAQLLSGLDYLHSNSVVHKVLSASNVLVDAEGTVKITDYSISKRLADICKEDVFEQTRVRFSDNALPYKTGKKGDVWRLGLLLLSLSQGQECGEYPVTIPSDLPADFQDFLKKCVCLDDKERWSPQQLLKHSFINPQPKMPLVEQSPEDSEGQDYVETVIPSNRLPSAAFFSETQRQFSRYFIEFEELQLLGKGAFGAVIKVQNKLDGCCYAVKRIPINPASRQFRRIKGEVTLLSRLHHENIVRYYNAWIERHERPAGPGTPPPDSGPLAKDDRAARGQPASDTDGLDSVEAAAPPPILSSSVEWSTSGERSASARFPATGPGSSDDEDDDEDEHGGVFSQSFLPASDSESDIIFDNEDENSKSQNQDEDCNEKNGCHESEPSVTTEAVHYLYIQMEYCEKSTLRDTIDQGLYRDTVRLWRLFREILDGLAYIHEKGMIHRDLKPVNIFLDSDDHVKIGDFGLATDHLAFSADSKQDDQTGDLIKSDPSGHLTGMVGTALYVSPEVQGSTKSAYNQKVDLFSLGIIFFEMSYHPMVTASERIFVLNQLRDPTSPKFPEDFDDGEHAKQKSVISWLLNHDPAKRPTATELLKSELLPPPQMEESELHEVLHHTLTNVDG
- Assay name: biochemical
- Format: binding, HIV-1 IN; human GCN2
- Condition set: screen, single dose 100 µM, single replicate; residual AlphaLISA signal normalized to DMSO control
IN-GCN2 interaction (%) listing for selected compounds.
Observed property: IN-GCN2 interaction (%)

[
  {
    "Compound": "C[C@H]1O[C@@H](c2ccc3c(c2O)C(=O)C2=C(C3=O)[C@@]3(O)C(=O)C[C@](C)(O)C[C@@]3(O)C=C2)C[C@@H](O)[C@@H]1O",
    "Tgt": "IN-GCN2 interaction (6xHis-IN / GST-GCN2) (UniProt P04585+Q9P2K8)",
    "Observed property": "IN-GCN2 interaction (%)",
    "Result": "10.15%"
  },
  {
    "Compound": "COc1cc2c(cc1OC)C13CCN4CC5CCOC6CC(=O)N2C1C6C5CC43 (stereo not shown)",
    "Tgt": "IN-GCN2 interaction (6xHis-IN / GST-GCN2) (UniProt P04585+Q9P2K8)",
    "Observed property": "IN-GCN2 interaction (%)",
    "Result": "90.85%"
  },
  {
    "Compound": "COC1C(=O)CCC2(CO2)C1(O)C1(C)OC1CC=C(C)C (stereo not shown)",
    "Tgt": "IN-GCN2 interaction (6xHis-IN / GST-GCN2) (UniProt P04585+Q9P2K8)",
    "Observed property": "IN-GCN2 interaction (%)",
    "Result": "103.23%"
  },
  {
    "Compound": "COc1cc(C)c2c(c1C=O)Oc1c(c(C)c(O)c3c1C(O)OC3=O)OC2=O (stereo not shown)",
    "Tgt": "IN-GCN2 interaction (6xHis-IN / GST-GCN2) (UniProt P04585+Q9P2K8)",
    "Observed property": "IN-GCN2 interaction (%)",
    "Result": "159.91%"
  }
]

----------
- Tgt: IN-GCN2 interaction (6xHis-IN / GST-GCN2) (UniProt P04585+Q9P2K8)
- Assay name: biochemical
- Type: binding, HIV-1 IN; human GCN2
- Condition set: screen, single dose 100 µM, single replicate; residual AlphaLISA signal normalized to DMSO control
Numbered stars: 1 amine (or outer) side, 2 acyl side, 3 side chain; on linkers, the order of the positions; unused ones are H or OH. Bridge positions count the residues as written; N and C are the ends. Square brackets hold non-standard residues; d marks the D form. Peptide text beside a SMILES is read from it. I, II: the chains in the order shown. Actinocin(9to1) = Cc1c2oc3c(C)ccc(C(=O)[*:1])c3nc-2c(C(=O)[*:2])c(N)c1=O; NMeV = CN[C@H](C(=O)O)C(C)C; Sar = CNCC(=O)O
Observed property: IN-GCN2 interaction (%)

[
  {
    "Compound": "C[C@@H]1C[C@H]2OC(=O)[C@@]3(C)CCC[C@@](C)([C@@H]23)[C@@]1(O)CCc1ccoc1",
    "Observed property": "IN-GCN2 interaction (%)",
    "Measured number": 92.00
  },
  {
    "Compound": "CC1=C(C)C(=O)O[C@@H]([C@](C)(O)[C@]2(O)CC[C@@]3(O)[C@@H]4C[C@H]5O[C@]56CC=CC(=O)[C@]6(C)[C@H]4CC[C@]23C)C1",
    "Observed property": "IN-GCN2 interaction (%)",
    "Measured number": 38.70
  },
  {
    "Compound": "C[N+]1(C)C2CC(OC(=O)C(CO)c3ccccc3)CC1C1OC12 (centres unmarked)",
    "Observed property": "IN-GCN2 interaction (%)",
    "Measured number": 93.88
  },
  {
    "Compound": "CC[C@]1(O)C[C@H]2CN(CCc3c([nH]c4ccccc34)[C@@](C(=O)OC)(c3cc4c(cc3OC)N(C=O)[C@H]3[C@@](O)(C(=O)OC)[C@H](OC(C)=O)[C@]5(CC)C=CCN6CC[C@]43[C@@H]65)C2)C1",
    "Observed property": "IN-GCN2 interaction (%)",
    "Measured number": 113.01
  },
  {
    "Compound": "Cc1c2oc3c(C)ccc(C(=O)N[C@@H]4C(=O)N[C@H](C(C)C)C(=O)N5CCC[C@H]5C(=O)N(C)CC(=O)N(C)[C@@H](C(C)C)C(=O)O[C@@H]4C)c3nc-2c(C(=O)N[C@@H]2C(=O)N[C@H](C(C)C)C(=O)N3CCC[C@H]3C(=O)N(C)CC(=O)N(C)[C@@H](C(C)C)C(=O)O[C@@H]2C)c(N)c1=O [NSC3053] (I: T[dV]P[Sar][NMeV] / II: T[dV]P[Sar][NMeV]; ester I:1-I:C, II:1-II:C; linker I:N-II:N via Actinocin(9to1))",
    "Observed property": "IN-GCN2 interaction (%)",
    "Measured number": 121.53
  },
  {
    "Compound": "O=C(O)C1OC(O)C(O)C(O)C1O (centres unmarked)",
    "Observed property": "IN-GCN2 interaction (%)",
    "Measured number": 110.72
  },
  {
    "Compound": "C[C@]12CCC(=O)[C@](C)(CO)[C@@H]1CC[C@@]13C[C@@H](CC[C@@H]12)[C@@H](C(=O)O)C3",
    "Observed property": "IN-GCN2 interaction (%)",
    "Measured number": 107.59
  },
  {
    "Compound": "C[C@@H]1C[C@H](C)C[C@H](C)[C@@H](O)CC(=O)O[C@H]([C@@H]2CCC[C@H]2C(=O)O)C/C=C/C=C(/C#N)[C@H](O)[C@@H](C)C1",
    "Observed property": "IN-GCN2 interaction (%)",
    "Measured number": 89.16
  },
  {
    "Compound": "CO[C@@H]1[C@@H](O[C@@H]2O[C@H](C)[C@@H](O[C@H]3C[C@@](C)(O)[C@@H](OC(=O)CC(C)C)[C@H](C)O3)[C@H](N(C)C)[C@H]2O)[C@@H](CC=O)C[C@@H](C)C(=O)/C=C/[C@@H]2O[C@H]2C[C@@H](C)OC(=O)C[C@H]1OC(C)=O",
    "Observed property": "IN-GCN2 interaction (%)",
    "Measured number": 99.20
  },
  {
    "Compound": "C=C1C(=O)OC2CC(C)C3(O)CCC(=O)C3(C)CC12 (centres unmarked)",
    "Observed property": "IN-GCN2 interaction (%)",
    "Measured number": 90.19
  },
  {
    "Compound": "C/C=C/c1cc2c(c(=O)o1)C(=O)[C@@H](O)[C@H](C)O2",
    "Observed property": "IN-GCN2 interaction (%)",
    "Measured number": 125.37
  }
]
